# credit: patent US20150141381A1

system: E. coli mL308 225; experiment: In Vitro Anti-Bacterial Activity Assay (MIC), gram negative; assay type: cell-based; details: Escherichia coli, ML308225, 18 h, gram negative bacteria; read-out: Antibiotic Activity Gram − (MIC)
Measurement name: MIC

* CN(C)[C@@H]1C(O)=C(C(N)=O)C(=O)[C@@]2(O)C(O)=C3C(=O)c4c(O)ccc(-c5ccc(NC(=O)c6ccco6)cc5)c4C[C@H]3C[C@@H]12 | > 4 µg/mL
* CN(C)[C@@H]1C(O)=C(C(N)=O)C(=O)[C@@]2(O)C(O)=C3C(=O)c4c(O)ccc(-c5ccc(NC(=O)OC(C)(C)C)cc5)c4C[C@H]3C[C@@H]12 | < 4 µg/mL
* COc1ccc(CNc2cc(N(C)C)c3c(c2O)C(=O)C2=C(O)[C@]4(O)C(=O)C(C(N)=O)=C(O)[C@@H](N(C)C)[C@@H]4C[C@@H]2C3)cc1O | > 4 µg/mL
* CN(C)[C@@H]1C(O)=C(C(N)=O)C(=O)[C@@]2(O)C(O)=C3C(=O)c4c(O)ccc(C5CCCC5)c4C[C@H]3C[C@@H]12 | < 4 µg/mL
* CN(C)c1cc(C#CC(=O)O)c(O)c2c1C[C@H]1C[C@H]3[C@H](N(C)C)C(O)=C(C(N)=O)C(=O)[C@@]3(O)C(O)=C1C2=O | > 4 µg/mL
* CN1CCC(Nc2ccc3c(c2O)C(=O)C2=C(O)[C@]4(O)C(=O)C(C(N)=O)=C(O)[C@@H](N(C)C)[C@@H]4C[C@@H]2C3)CC1 | > 4 µg/mL
* C#CCOC(=O)Nc1ccc2c(c1O)C(=O)C1=C(O)[C@]3(O)C(=O)C(C(N)=O)=C(O)[C@@H](N(C)C)[C@@H]3C[C@@H]1C2 | < 4 µg/mL
* CN(C)c1cc(CCc2ccc(F)cc2)c(O)c2c1C[C@H]1C[C@H]3[C@H](N(C)C)C(O)=C(C(N)=O)C(=O)[C@@]3(O)C(O)=C1C2=O | < 4 µg/mL
* CC(C)CNCc1cc(N(C)C)c2c(c1O)C(=O)C1=C(O)[C@]3(O)C(=O)C(C(N)=O)=C(O)[C@@H](N(C)C)[C@@H]3C[C@@H]1C2 [drawing 3469] | < 4 µg/mL
* CCCC/C(Cl)=C/c1ccc(O)c2c1C[C@H]1C[C@H]3[C@H](N(C)C)C(O)=C(C(N)=O)C(=O)[C@@]3(O)C(O)=C1C2=O | < 4 µg/mL
* CN(C)[C@@H]1C(O)=C(C(N)=O)C(=O)[C@@]2(O)C(O)=C3C(=O)c4c(O)ccc(-c5ccc(/C=N/CC#N)cc5)c4C[C@H]3C[C@@H]12 | > 4 µg/mL

====

system: S. aureus RN450; assay: In Vitro Anti-Bacterial Activity Assay (MIC), gram positive; assay type: cell-based; details: Staphylococcus aureus, RN450, 18 h, read-out: Antibiotic Activity Gram +
Quick reference for MIC among some molecules
Measurement name: MIC

* Cc1ccc(OC(=O)Nc2ccc(O)c3c2C[C@H]2C[C@H]4[C@H](N(C)C)C(O)=C(C(N)=O)C(=O)[C@@]4(O)C(O)=C2C3=O)cc1 | < 4 µg/mL
* CN(C)c1cc(CNC(=O)Oc2ccc(Br)cc2)c(O)c2c1C[C@H]1C[C@H]3[C@H](N(C)C)C(O)=C(C(N)=O)C(=O)[C@@]3(O)C(O)=C1C2=O | < 4 µg/mL
* CCOP(=O)(OCC)C(Nc1cc(N(C)C)c2c(c1O)C(=O)C1=C(O)[C@]3(O)C(=O)C(C(N)=O)=C(O)[C@@H](N(C)C)[C@@H]3C[C@@H]1C2)c1ccccc1 (stereo partly drawn) | > 4 µg/mL
* CN(C)c1cc(NC(=O)Oc2ccccc2)c(O)c2c1C[C@H]1C[C@H]3[C@H](N(C)C)C(O)=C(C(N)=O)C(=O)[C@@]3(O)C(O)=C1C2=O | > 4 µg/mL
* CN(C)c1cc(NC(=O)Oc2ccc(Cl)cc2)c(O)c2c1C[C@H]1C[C@H]3[C@H](N(C)C)C(O)=C(C(N)=O)C(=O)[C@@]3(O)C(O)=C1C2=O | > 4 µg/mL
* COc1ccc(OC(=O)Nc2cc(N(C)C)c3c(c2O)C(=O)C2=C(O)[C@]4(O)C(=O)C(C(N)=O)=C(O)[C@H](N(C)C)[C@@H]4C[C@@H]2C3)cc1 | > 4 µg/mL
